Give measured relative viability for each item. Keep answers brief.
System: ChaGo-K-1
Assay: relative viability (nuclei count vs DMSO), 5 days (fraction); higher = more cells survive
Conditions: first compound 0.253 µM
Provide a numeric answer; units are not to be included.

Find relative viability for Nc1cccc2c1CN(C1CCC(=O)NC1=O)C2=O (centres undefined) [Lenalidomide] + Nc1nc2[nH]cc(CCc3ccc(C(=O)N[C@@H](CCC(=O)O)C(=O)O)cc3)c2c(=O)[nH]1 [Pemetrexed] (partner 0.2 µM) on ChaGo-K-1 and write it down. 0.256

Find relative viability for Nc1cccc2c1CN(C1CCC(=O)NC1=O)C2=O (centres undefined) [Lenalidomide] + Cc1cc(Nc2cc(N3CCN(C)CC3)nc(Sc3ccc(NC(=O)C4CC4)cc3)n2)n[nH]1 [Tozasertib] (partner 0.1 µM) on ChaGo-K-1 and write it down. 0.242

Find relative viability for Nc1cccc2c1CN(C1CCC(=O)NC1=O)C2=O (centres undefined) [Lenalidomide] + CC(C)C[C@H](NC(=O)[C@H](Cc1ccccc1)NC(=O)c1cnccn1)B(O)O [Bortezomib] (partner 0.002 µM) on ChaGo-K-1 and write it down. 1.07

Find relative viability for Nc1cccc2c1CN(C1CCC(=O)NC1=O)C2=O (centres undefined) [Lenalidomide] + CCNC(=O)c1noc(-c2cc(C(C)C)c(O)cc2O)c1-c1ccc(CN2CCOCC2)cc1 [Luminespib] (partner 0.01 µM) on ChaGo-K-1 and write it down. 0.649

###

Test system: HOP-62
Assay: relative viability (nuclei count vs DMSO), 5 days (fraction); higher = more cells survive
Conditions: first compound 0.1 µM
Give measured relative viability for each item. Keep answers brief.
Provide a numeric answer; units are not to be included.

Consider the compound Cc1cn(-c2cc(NC(=O)c3ccc(C)c(Nc4nccc(-c5cccnc5)n4)c3)cc(C(F)(F)F)c2)cn1 [Nilotinib] + CC1(C)CCC(c2ccc(Cl)cc2)=C(CN2CCN(c3ccc(C(=O)NS(=O)(=O)c4ccc(N[C@H](CCN5CCOCC5)CSc5ccccc5)c(S(=O)(=O)C(F)(F)F)c4)cc3)CC2)C1 [Navitoclax] (partner 0.5 µM) and give its recorded relative viability. 0.454

Consider the compound Cc1cn(-c2cc(NC(=O)c3ccc(C)c(Nc4nccc(-c5cccnc5)n4)c3)cc(C(F)(F)F)c2)cn1 [Nilotinib] + COc1cc2c(Oc3ccc(NC(=O)C4(C(=O)Nc5ccc(F)cc5)CC4)cc3F)ccnc2cc1OCCCN1CCOCC1 [Foretinib] (partner 0.25 µM) and give its recorded relative viability. 0.771

Consider the compound Cc1cn(-c2cc(NC(=O)c3ccc(C)c(Nc4nccc(-c5cccnc5)n4)c3)cc(C(F)(F)F)c2)cn1 [Nilotinib] + O=C(c1cc(Cc2n[nH]c(=O)c3ccccc23)ccc1F)N1CCN(C(=O)C2CC2)CC1 [Olaparib] (partner 8 µM) and give its recorded relative viability. 0.352

Consider the compound Cc1cn(-c2cc(NC(=O)c3ccc(C)c(Nc4nccc(-c5cccnc5)n4)c3)cc(C(F)(F)F)c2)cn1 [Nilotinib] + C[C@]1(O)C[C@@H](c2nc(-c3ccc4ccc(-c5ccccc5)nc4c3)c3c(N)nccn32)C1 [Linsitinib] (partner 1 µM) and give its recorded relative viability. 0.744

###

Tested on: HCC-366
Experiment: relative viability (nuclei count vs DMSO), 5 days (fraction); higher = more cells survive
Settings: first compound 20 µM
quantityName: relative viability
Provide a numeric answer; units are not to be included.

Consider the compound Cc1csc(=NC2CCCCC2)n1/N=C/c1ccc(O)c(O)c1O [MIM1] + Cc1cc(Nc2cc(N3CCN(C)CC3)nc(Sc3ccc(NC(=O)C4CC4)cc3)n2)n[nH]1 [Tozasertib] (partner 0.1 µM) and give its recorded relative viability. 0.0212

Consider the compound Cc1csc(=NC2CCCCC2)n1/N=C/c1ccc(O)c(O)c1O [MIM1] + NC(=O)Nc1cc(-c2cccc(F)c2)sc1C(=O)N[C@H]1CCCNC1 [AZD7762] (partner 0.2 µM) and give its recorded relative viability. 0.0374

Consider the compound Cc1csc(=NC2CCCCC2)n1/N=C/c1ccc(O)c(O)c1O [MIM1] + CC(C)C[C@H](NC(=O)[C@H](Cc1ccccc1)NC(=O)c1cnccn1)B(O)O [Bortezomib] (partner 0.002 µM) and give its recorded relative viability. 0.0323

Consider the compound Cc1csc(=NC2CCCCC2)n1/N=C/c1ccc(O)c(O)c1O [MIM1] + CC1(C)CCC(c2ccc(Cl)cc2)=C(CN2CCN(c3ccc(C(=O)NS(=O)(=O)c4ccc(N[C@H](CCN5CCOCC5)CSc5ccccc5)c(S(=O)(=O)C(F)(F)F)c4)cc3)CC2)C1 [Navitoclax] (partner 0.5 µM) and give its recorded relative viability. 0.0645

###

Test system: H3255
Test: relative viability (nuclei count vs DMSO), 5 days (fraction); higher = more cells survive
Settings: first compound 0.8 µM
Give measured relative viability for each item. Keep answers brief.

Find relative viability for Nc1cccc2c1CN(C1CCC(=O)NC1=O)C2=O (centres undefined) [Lenalidomide] + CC1(C)CCC(c2ccc(Cl)cc2)=C(CN2CCN(c3ccc(C(=O)NS(=O)(=O)c4ccc(N[C@H](CCN5CCOCC5)CSc5ccccc5)c(S(=O)(=O)C(F)(F)F)c4)cc3)CC2)C1 [Navitoclax] (partner 0.5 µM) on H3255 and write it down. 0.395

Find relative viability for Nc1cccc2c1CN(C1CCC(=O)NC1=O)C2=O (centres undefined) [Lenalidomide] + CC(=O)Nc1cccc(-n2c(=O)n(C3CC3)c(=O)c3c(Nc4ccc(I)cc4F)n(C)c(=O)c(C)c32)c1 [Trametinib] (partner 0.02 µM) on H3255 and write it down. 0.624

Find relative viability for Nc1cccc2c1CN(C1CCC(=O)NC1=O)C2=O (centres undefined) [Lenalidomide] + C[C@]1(O)C[C@@H](c2nc(-c3ccc4ccc(-c5ccccc5)nc4c3)c3c(N)nccn32)C1 [Linsitinib] (partner 1 µM) on H3255 and write it down. 0.957

Find relative viability for Nc1cccc2c1CN(C1CCC(=O)NC1=O)C2=O (centres undefined) [Lenalidomide] + C[C@@H](Oc1cc(-c2cnn(C3CCNCC3)c2)cnc1N)c1c(Cl)ccc(F)c1Cl [Crizotinib] (partner 1 µM) on H3255 and write it down. 0.885

###

System: NCI-H1944
Experiment: relative viability (nuclei count vs DMSO), 5 days (fraction); higher = more cells survive
Conditions: first compound 0.003162 µM
Give measured relative viability for each item. Keep answers brief.
Provide a numeric answer; units are not to be included.

Find relative viability for Cc1cn(-c2cc(NC(=O)c3ccc(C)c(Nc4nccc(-c5cccnc5)n4)c3)cc(C(F)(F)F)c2)cn1 [Nilotinib] + N=C(N)NC(=N)NCCc1ccccc1 [Phenformin] (partner 250 µM) on NCI-H1944 and write it down. 0.216

Find relative viability for Cc1cn(-c2cc(NC(=O)c3ccc(C)c(Nc4nccc(-c5cccnc5)n4)c3)cc(C(F)(F)F)c2)cn1 [Nilotinib] + CS(=O)(=O)CCNCc1ccc(-c2ccc3ncnc(Nc4ccc(OCc5cccc(F)c5)c(Cl)c4)c3c2)o1 [Lapatinib] (partner 2 µM) on NCI-H1944 and write it down. 0.996

Find relative viability for Cc1cn(-c2cc(NC(=O)c3ccc(C)c(Nc4nccc(-c5cccnc5)n4)c3)cc(C(F)(F)F)c2)cn1 [Nilotinib] + COc1cccc2cc(-c3nc([C@H]4CC[C@H](C(=O)O)CC4)n4ncnc(N)c34)[nH]c12 [OSI-027] (partner 0.5 µM) on NCI-H1944 and write it down. 0.407

Find relative viability for Cc1cn(-c2cc(NC(=O)c3ccc(C)c(Nc4nccc(-c5cccnc5)n4)c3)cc(C(F)(F)F)c2)cn1 [Nilotinib] + C[C@@H](Oc1cc(-c2cnn(C3CCNCC3)c2)cnc1N)c1c(Cl)ccc(F)c1Cl [Crizotinib] (partner 1 µM) on NCI-H1944 and write it down. 1.24

Find relative viability for Cc1cn(-c2cc(NC(=O)c3ccc(C)c(Nc4nccc(-c5cccnc5)n4)c3)cc(C(F)(F)F)c2)cn1 [Nilotinib] + C[C@]1(O)C[C@@H](c2nc(-c3ccc4ccc(-c5ccccc5)nc4c3)c3c(N)nccn32)C1 [Linsitinib] (partner 1 µM) on NCI-H1944 and write it down. 1.41

Find relative viability for Cc1cn(-c2cc(NC(=O)c3ccc(C)c(Nc4nccc(-c5cccnc5)n4)c3)cc(C(F)(F)F)c2)cn1 [Nilotinib] + CC1(C)CCC(c2ccc(Cl)cc2)=C(CN2CCN(c3ccc(C(=O)NS(=O)(=O)c4ccc(N[C@H](CCN5CCOCC5)CSc5ccccc5)c(S(=O)(=O)C(F)(F)F)c4)cc3)CC2)C1 [Navitoclax] (partner 0.5 µM) on NCI-H1944 and write it down. 1.13

Find relative viability for Cc1cn(-c2cc(NC(=O)c3ccc(C)c(Nc4nccc(-c5cccnc5)n4)c3)cc(C(F)(F)F)c2)cn1 [Nilotinib] + O=C(c1cc(Cc2n[nH]c(=O)c3ccccc23)ccc1F)N1CCN(C(=O)C2CC2)CC1 [Olaparib] (partner 8 µM) on NCI-H1944 and write it down. 0.397

Find relative viability for Cc1cn(-c2cc(NC(=O)c3ccc(C)c(Nc4nccc(-c5cccnc5)n4)c3)cc(C(F)(F)F)c2)cn1 [Nilotinib] + Nc1nc2[nH]cc(CCc3ccc(C(=O)N[C@@H](CCC(=O)O)C(=O)O)cc3)c2c(=O)[nH]1 [Pemetrexed] (partner 0.2 µM) on NCI-H1944 and write it down. 0.519

Data credit: the supplement of paper PMC10307832
